- Tested on: HEK-293T
- assay_explanation: Multiplex assay against HEK293T
- Format: toxicity, cell-based
- details: human, 48 h, 1 µM, compound concentration 1 uM, replicate 1
Note to self: values exactly at 10% are true (1). So Population Tubulin-Different-Phenotype (%) at or above 10% is true (1), below is false (0).

Example entries and their recorded answers appear below.
1) C[C@H](NC(=O)CNC(=O)c1cccc(Cl)c1)c1ccccc1 | true (1)
2) COCCCN1CCC(NC(=O)c2cc(Cl)c(N)c3c2OCC3)CC1 [PRUCALOPRIDE] | true (1)
3) S=C(NCCCc1c[nH]cn1)NCCCN(Cc1ccc(Cl)c(Cl)c1)c1ccc(Br)cn1 | true (1)

Population Tubulin-Different-Phenotype (%) >= 10% for C=CCN1C[C@H](C(=O)N(CCCN(C)C)C(=O)NCC)C[C@@H]2c3cccc4[nH]cc(c34)C[C@H]21 [CABERGOLINE] ?
true (1)

###

- System: U2OS
- assay_explanation: Multiplex assay against U2OS
- Type: toxicity, cell-based
- details: human, 48 h, 1 µM, compound concentration 1 uM, replicate 1
# Lookup of reported Population Mitotic Cells (%) keyed by entry
Write the number in % without appending the unit.

Worked cases, Population Mitotic Cells (%) given:
1) O=c1ccc2ccc(OCCCCN3CCN(c4cccc5sccc45)CC3)cc2[nH]1 [BREXPIPRAZOLE] | 35
2) COCCn1c(C)c(C)s/c1=N\C(=O)C1C(C)(C)C1(C)C | 5
3) Cc1cc(=O)n(C)c2cc(N3C(=O)CC[C@H](NS(=O)(=O)CC(C)C)[C@H]3c3ccc(Cl)cc3)ccc12 | 22

Query molecule follows.
Please report Population Mitotic Cells (%) for the following molecule: O=C(O)CCC/C=C\CC1C(O)CC(O)C1/C=C/C(O)COc1cccc(Cl)c1 (centres undefined) [CLOPROSTENOL]
10

###

# Lookup of reported Population Mitotic Cells (%) keyed by entry
- Tested on: HEK-293T
- assay_explanation: Multiplex assay against HEK293T
- Type: toxicity, cell-based
- details: human, 12 h, 1 µM, compound concentration 1 uM, replicate 2

Worked cases, Population Mitotic Cells (%) given:
1. CCC(=O)OCC(=O)[C@@]1(OC(=O)CC)[C@@H](C)C[C@H]2[C@@H]3CCC4=CC(=O)C=C[C@]4(C)[C@@]3(Cl)[C@@H](O)C[C@@]21C [BECLOMETHASONE DIPROPIONATE] | 52%
2. Cc1cc(O)c(-c2ccc([C@@H](C)CN(C)C)cc2)c2c1[nH]c(=O)c1sccc12 | 40%
3. CN1CCN2c3ccccc3Cc3ccccc3C2C1.Cl (stereo not drawn) [MIANSERIN HYDROCHLORIDE] | 53%
4. N[C@](CC1c2ccccc2Oc2ccccc21)(C(=O)O)[C@H]1C[C@@H]1C(=O)O | 45%
5. CC(C)C[C@H](CO)Nc1nc(S[C@@H](C)c2ccccc2)nc2nc(N)sc12 | 53%

Please report Population Mitotic Cells (%) for the following molecule: Cc1cc(=O)n(C)c2cc(N3C(=O)CC[C@H](NS(=O)(=O)CC(C)C)[C@H]3c3ccc(Cl)cc3)ccc12
36%

Please report Population Mitotic Cells (%) for the following molecule: C[C@@H]1CC(=O)Nc2cccc(-c3ccc4c(c3)c(-c3cnn(C)c3)nn4C)c2N1
39%

Please report Population Mitotic Cells (%) for the following molecule: Nc1nc(-c2ccco2)c2cnn(Cc3ccccc3F)c2n1
63%

###

- System: HEK-293T
- assay_explanation: Multiplex assay against HEK293T
- Type: toxicity, cell-based
- details: human, 24 h, 10 µM, compound concentration 10 uM, replicate 2
Simple rule here: Population Pyknosed Nuclei (%) less than 10% is met, otherwise not met.

Example entries and their recorded answers appear below.
1. OCCCNc1cc(-c2ccnc(Nc3cccc(Cl)c3)n2)ccn1 | not met
2. O=C(O)CCC/C=C\CC1C(O)CC(O)C1/C=C/C(O)COc1cccc(Cl)c1 (configuration not stated) | met

Check if Population Pyknosed Nuclei (%) falls below 10% for CCc1nn2c(C)cc(C)nc2c1Cc1ccc(-c2nnc(C3CCNCC3)o2)cc1 .
not met

Check if Population Pyknosed Nuclei (%) falls below 10% for CN1C[C@H](C(=O)N[C@]2(C)O[C@@]3(O)[C@@H]4CCCN4C(=O)[C@H](Cc4ccccc4)N3C2=O)C[C@@H]2c3cccc4[nH]cc(c34)C[C@H]21.CS(=O)(=O)O [DIHYDROERGOTAMINE MESYLATE] .
met

###

# Lookup of reported Population Healthy Nuclei (%) keyed by entry
- System: HEK-293T
- assay_explanation: Multiplex assay against HEK293T
- Assay type: toxicity, cell-based
- details: human, 24 h, 1 µM, compound concentration 1 uM, replicate 2
Write the number in % without appending the unit.

Worked cases, Population Healthy Nuclei (%) given:
1. O=c1ccc2ccc(OCCCCN3CCN(c4cccc5sccc45)CC3)cc2[nH]1 | 87
2. Cc1ccc(OCC(O)C(C)NC(C)C)c2c1CCC2.Cl (centres undefined) | 83
3. Cc1c(Cc2ccc3ccccc3n2)c2cc(F)ccc2n1CC(=O)O | 83
4. CN1CCC(C(=O)c2cccc(NC(=O)c3c(F)cc(F)cc3F)n2)CC1 | 83

Please report Population Healthy Nuclei (%) for the following molecule: CCCCC[C@H](O)/C=C/[C@H]1[C@H](O)CC(=O)[C@@H]1CCCCCCC(=O)O
85

Please report Population Healthy Nuclei (%) for the following molecule: COc1ccc2c(c1OCc1ccccc1)C[C@@H](C(=O)O)N(C(=O)C(c1ccccc1)c1ccccc1)C2
81

Please report Population Healthy Nuclei (%) for the following molecule: CC(C)(O)C(=O)N1CCN(c2ccc(C(F)(F)F)c(C3=C(c4c[nH]c5ccccc45)C(=O)NC3=O)c2)CC1
79

Please report Population Healthy Nuclei (%) for the following molecule: CN(C)C(=O)Cn1cc(-c2ccc(-c3nnc4ccccn34)cc2)cn1
82

Please report Population Healthy Nuclei (%) for the following molecule: CCn1c(-c2nc3cc(C(=O)N4CCCC(N)C4)ccc3n2C)cc2ccccc21.Cl (centres undefined)
79

###

# Lookup of reported Population Hoechst High Intensity Objects (%) keyed by entry
- System: U2OS
- assay_explanation: Multiplex assay against U2OS
- Type: toxicity, cell-based
- details: human, 24 h, 10 µM, compound concentration 10 uM, replicate 2
Write the number in % without appending the unit.

Worked cases, Population Hoechst High Intensity Objects (%) given:
1. CN1CCN2c3ccccc3Cc3ccccc3C2C1.Cl (centres undefined) [MIANSERIN HYDROCHLORIDE] | 2
2. O=c1ccc2ccc(OCCCCN3CCN(c4cccc5sccc45)CC3)cc2[nH]1 | 22

Please report Population Hoechst High Intensity Objects (%) for the following molecule: Cc1sc2c(c1C)C(c1ccc(Cl)cc1)=N[C@H](CC(=O)OC(C)(C)C)c1nnc(C)n1-2
0

Please report Population Hoechst High Intensity Objects (%) for the following molecule: C=CCN1C[C@H](C(=O)N(CCCN(C)C)C(=O)NCC)C[C@@H]2c3cccc4[nH]cc(c34)C[C@H]21
2

###

- Test system: U2OS
- assay_explanation: Multiplex assay against U2OS
- Assay type: toxicity, cell-based
- details: human, 48 h, 10 µM, compound concentration 10 uM, replicate 2
Simple rule here: Total Cell Count less than 200 is criterion met, otherwise criterion not met.

Example entries and their recorded answers appear below.
1) O=C(O)CCC/C=C\CC1C(O)CC(O)C1/C=C/C(O)COc1cccc(Cl)c1 (stereo not drawn) | criterion not met
2) Cc1sc2c(c1C)C(c1ccc(Cl)cc1)=N[C@H](CC(=O)OC(C)(C)C)c1nnc(C)n1-2 | criterion met
3) CCc1nn2c(C)cc(C)nc2c1Cc1ccc(-c2nnc(C3CCNCC3)o2)cc1 | criterion not met
4) COc1c(Nc2ccc(S(C)(=O)=O)nc2C)ncnc1OC1CCN(C(=O)OC(C)C)CC1 | criterion not met
5) CN1CCC(C(=O)c2cccc(NC(=O)c3c(F)cc(F)cc3F)n2)CC1 | criterion met

Now for another entry.
Check if Total Cell Count falls below 200 for CC(C)(O)C(=O)N1CCN(c2ccc(C(F)(F)F)c(C3=C(c4c[nH]c5ccccc45)C(=O)NC3=O)c2)CC1 .
criterion met

###

# Lookup of reported Population Healthy Nuclei (%) keyed by entry
- Test system: U2OS
- assay_explanation: Multiplex assay against U2OS
- Type: toxicity, cell-based
- details: human, 48 h, 10 µM, compound concentration 10 uM, replicate 2
Write the number in % without appending the unit.

Worked cases, Population Healthy Nuclei (%) given:
1. COc1cc2nc(N3CCN(C(=O)c4ccco4)CC3)nc(N)c2cc1OC.Cl [PRAZOSIN HYDROCHLORIDE] | 76
2. O=C(NCCNCC(O)COc1ccc(O)cc1)N1CCOCC1.O=C(NCCNCC(O)COc1ccc(O)cc1)N1CCOCC1.O=C(O)/C=C/C(=O)O (configuration not stated) [XAMOTEROL FUMARATE] | 73
3. CC(C)(O)C(=O)N1CCN(c2ccc(C(F)(F)F)c(C3=C(c4c[nH]c5ccccc45)C(=O)NC3=O)c2)CC1 | 27
4. N[C@](CC1c2ccccc2Oc2ccccc21)(C(=O)O)[C@H]1C[C@@H]1C(=O)O | 78
5. Cl.Cl.OCCOCCN1CCN(C(c2ccccc2)c2ccc(Cl)cc2)CC1 (configuration not stated) [HYDROXYZINE HYDROCHLORIDE] | 64
6. CCCCCCNC(=O)Nc1ccc(S(=O)(=O)Nc2ccc(CCNC[C@H](O)COc3ccc(O)cc3)cc2)cc1 [L-755507] | 78
7. CN1CCN(c2ccc(Nc3c4ccccc4nc4ccccc34)cc2)CC1.Cl.Cl.O | 19
8. Cc1c(Cc2ccc3ccccc3n2)c2cc(F)ccc2n1CC(=O)O [TIMAPIPRANT] | 80

Query compound follows.
Please report Population Healthy Nuclei (%) for the following compound: Cc1nn(C)c2nc(NNC(=O)Nc3cc(Cl)nc(Cl)c3)cc(C(C)C)c12
48
